system: biotinyl-Val-oxazolone; test: self-aminoacylation, catalytic enhancement (BVO) (fold over background); higher = more active; k-Seq, kA / k0A0; sequences stand for … in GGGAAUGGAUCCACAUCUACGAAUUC…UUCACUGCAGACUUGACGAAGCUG
This sample holds only a part of the variants without activity.
Use 3 as the dividing line for self-aminoacylation, with the line itself on the true side and lower values as false.

Check out these entries, answers already filled in.
residueString | classLabel
CCACACUUCCAGCAAUCGGUC [Fam1B.1 aminoacylation ribozyme variant] | false
CCACUUUUCAAGCAAUCGGUC [Fam1B.1 aminoacylation ribozyme variant] | false
ACUCACAUAGGUCAUCGGGUG [Fam2.2 aminoacylation ribozyme variant] | true
AUUACCCCGGUCAUCGAGGGA [Fam2.1 aminoacylation ribozyme variant] | false
AUCACCCUGGUCAUCGAGUGA [Fam2.1 aminoacylation ribozyme variant] | true
GCGCACUUCAAGCAAUCGGUC [Fam1B.1 aminoacylation ribozyme variant] | false
AUUAGCAUGGUCAUCGAGUGA [Fam2.1 aminoacylation ribozyme variant] | false
AUUCUCCUAGGUCUUCGGGUG [Fam2.2 aminoacylation ribozyme variant] | true
AUUACCCUGGUCAUCGGGUAA [Fam2.1 aminoacylation ribozyme variant] | true
GAGUUUGCUAAUAGGCGCAAG [Fam3.1 aminoacylation ribozyme variant] | false

Problem: Does CUACUUCAAACAAUCGGAUUG [Fam1A.1 aminoacylation ribozyme variant] have a reported self-aminoacylation of at least 3?
Result: false

Problem: Does AGUCACCUAGGUCAUCGAGUG [Fam2.2 aminoacylation ribozyme variant] have a reported self-aminoacylation of at least 3?
Result: true

Problem: Does AUUACCCUGCUUAUCGAGUGA [Fam2.1 aminoacylation ribozyme variant] have a reported self-aminoacylation of at least 3?
Result: false

Problem: Does AAGUUUGCUAAAAGUCGCAAC [Fam3.1 aminoacylation ribozyme variant] have a reported self-aminoacylation of at least 3?
Result: false

Problem: Does AAGUUUGCUAAUAGUCCAAAG [Fam3.1 aminoacylation ribozyme variant] have a reported self-aminoacylation of at least 3?
Result: false

Problem: Does AAGUUCGCAAAUAGUCGCAAG [Fam3.1 aminoacylation ribozyme variant] have a reported self-aminoacylation of at least 3?
Result: false

Problem: Does CCUCACUUCAAGCAAUCGGUC [Fam1B.1 aminoacylation ribozyme variant] have a reported self-aminoacylation of at least 3?
Result: false

Problem: Does AUUACCCUGGUCAUCUAGUGA [Fam2.1 aminoacylation ribozyme variant] have a reported self-aminoacylation of at least 3?
Result: true

Problem: Does AUUACCCCGGUCGUCGAGUGA [Fam2.1 aminoacylation ribozyme variant] have a reported self-aminoacylation of at least 3?
Result: false

---

system: biotinyl-Phe-oxazolone; assay: self-aminoacylation, catalytic enhancement (BFO) (fold over background); higher = more active; k-Seq, kA / k0A0; sequences stand for … in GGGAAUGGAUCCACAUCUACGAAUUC…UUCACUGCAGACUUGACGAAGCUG
Fewer inactive variants are shown than the library holds.
So basically every entry gets a class from its self-aminoacylation, ranges being class 0: < 2; class 1: ≥ 2 and < 10; class 2: ≥ 10

Check out these entries, answers already filled in.
residueString | classLabel
AUUACCGUGGUCAUCGAGUGG [Fam2.1 aminoacylation ribozyme variant] | class 1
AAUCACCUAGGUCAUCGGGUG [Fam2.2 aminoacylation ribozyme variant] | class 2
CCAGAUUUCAAGCAAUCGGUC [Fam1B.1 aminoacylation ribozyme variant] | class 1

Problem: Which bin, given its self-aminoacylation, does CCAAACUUCAAGCAAUCAGUC [Fam1B.1 aminoacylation ribozyme variant] occupy?
Result: class 1

Problem: Which bin, given its self-aminoacylation, does AUACCUCAAACAAUCGGUCUG [Fam1A.1 aminoacylation ribozyme variant] occupy?
Result: class 1

Problem: Which bin, given its self-aminoacylation, does AAGUCUGCGAAUAGUCGCAAG [Fam3.1 aminoacylation ribozyme variant] occupy?
Result: class 1

Problem: Which bin, given its self-aminoacylation, does CUACUUCGAACAAUCUGUCUG [Fam1A.1 aminoacylation ribozyme variant] occupy?
Result: class 0

Problem: Which bin, given its self-aminoacylation, does AUUCACCUAGGUCAUCGGAGG [Fam2.2 aminoacylation ribozyme variant] occupy?
Result: class 0

Problem: Which bin, given its self-aminoacylation, does ACGUUUGUUAAUAGUCGCAAG [Fam3.1 aminoacylation ribozyme variant] occupy?
Result: class 1
